# Target Or System: T1, Mip1Δ216 (Saccharomyces cerevisiae, UniProt P15801 30-1038, del1039-1254)
# T1 sequence: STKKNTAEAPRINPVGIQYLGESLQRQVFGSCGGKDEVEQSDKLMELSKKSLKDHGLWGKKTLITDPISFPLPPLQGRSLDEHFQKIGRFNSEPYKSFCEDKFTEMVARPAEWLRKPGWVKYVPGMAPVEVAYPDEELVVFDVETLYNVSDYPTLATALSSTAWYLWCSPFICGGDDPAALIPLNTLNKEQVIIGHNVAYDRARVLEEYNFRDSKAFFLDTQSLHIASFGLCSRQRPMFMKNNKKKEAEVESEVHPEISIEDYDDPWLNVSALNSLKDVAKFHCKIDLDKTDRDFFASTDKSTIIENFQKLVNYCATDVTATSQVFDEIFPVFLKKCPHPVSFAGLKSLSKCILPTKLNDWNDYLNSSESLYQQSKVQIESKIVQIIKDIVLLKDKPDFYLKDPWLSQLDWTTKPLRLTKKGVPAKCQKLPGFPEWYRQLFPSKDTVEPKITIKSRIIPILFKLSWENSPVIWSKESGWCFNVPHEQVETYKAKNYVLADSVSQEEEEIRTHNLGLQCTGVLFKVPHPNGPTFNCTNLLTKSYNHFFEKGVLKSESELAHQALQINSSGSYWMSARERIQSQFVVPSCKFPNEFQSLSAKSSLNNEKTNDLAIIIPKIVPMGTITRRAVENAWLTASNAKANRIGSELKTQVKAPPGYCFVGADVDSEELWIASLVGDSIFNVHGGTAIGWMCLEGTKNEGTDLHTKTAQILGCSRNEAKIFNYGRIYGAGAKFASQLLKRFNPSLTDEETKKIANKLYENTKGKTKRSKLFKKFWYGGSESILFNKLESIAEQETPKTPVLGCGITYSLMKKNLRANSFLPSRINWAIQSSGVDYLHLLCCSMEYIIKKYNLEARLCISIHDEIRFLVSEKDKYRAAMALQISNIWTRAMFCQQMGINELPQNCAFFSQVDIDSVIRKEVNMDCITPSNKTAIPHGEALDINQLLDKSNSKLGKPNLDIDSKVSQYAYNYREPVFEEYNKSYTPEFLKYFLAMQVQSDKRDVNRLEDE
# Measurement Notes: EMSA; no Mg2+ or dNTP in binding mix; EMSA: 1 nM substrate, 0.2-12.5 nM polymerase, 20 mM Tris-HCl pH 8.0, 40 mM KCl, 10% glycerol, 0.1 mg/ml BSA, 2 mM DTT, 2 min at 0°C; native 8% Tris-glycine gel
# Test Context: protein: recombinant; tags: N-terminal 6xHis; label: 32P at 5' end of D25 primer; 25 bp duplex, 5' overhang 20 nt on D45 (recessed primer 3' end)
Assay Metric: Kd (nM)
Numbers only, in nM.

INPUT: Form field: reported Kd of 45/25 primer-template (D45/D25) (dsDNA) DNA 1: GGACGGCATTGGATCGAGGTTGAGTTGGTTGGACGGCTGCGAGGC DNA 2: GCCTCGCAGCCGTCCAACCAACTCA
OUTPUT: 0.95
